From: patent US20230416203A1

TEST NAME: Solubility test (PBS, HPLC-UV)
Format: physicochemical
CONDITION CONTEXT: pH 7.4, aqueous buffer, kinetic from dmso stock, PBS pH 7.4
Method: Calibration standards at 1, 5, 10, 50, 100, 200 and 300 μM were prepared in DMSO from a 20 mM stock. […] The plate was covered and shook at 150 rotations per min for 90 min. At the end of 90 min, samples were filtered using MultiScreen HTS vacuum Manifold assembly and the filtrate was collected onto the acceptor plate. An aliquot (150 μL) of the filtrate from the above 96-well acceptor plate was transferred into HPLC vials and analyzed by HPLC-UV. […]
REPORTED PROPERTY: solubility at 90 min

Data point: COC(=O)C1=CNC=C(C(=O)OC)C1c1ccc(F)c(C(F)(F)F)c1 [Compound 103] ; solubility at 90 min = ≤ 87.4 µM

---

TEST NAME: Plasma and liver studies after 14 days of repeated oral dose
Type: in vivo, C57/BL6 mice
CONDITION CONTEXT: C57/BL6, mouse, liver; 50 mg/kg BID oral 14 days, Female mice; read-out: Average Concentration Liver
REPORTED PROPERTY: concentration at 14 days (ng/g)
Supply the numeric figure in ng/g, leaving out any unit text.

Data point: COC(=O)C1=CNC=C(C(=O)OC)C1c1ccc(F)c(C(F)(F)F)c1 ; concentration at 14 days = 12100

---

TGT: KCa3.1 channel (Homo sapiens)
TEST NAME: KCa3.1 patch-clamp (QPatch HTX automated and manual)
Format: cell-based
CONDITION CONTEXT: Table 3; read-out: KCa3.1 IC50
Each entry below carries its recorded pIC50.
In simple prose, pIC50 is minus the logarithm base ten of a concentration in moles per litre.

MOLECULE | TGT | NUMERIC RESULT
COC(=O)C1=C(C)NC(C)=C(C(=O)OC)C1c1ccccc1[N+](=O)[O-] [Compound 07] | KCa3.1 channel (Homo sapiens) | 5.40

Data point: CCOC(=O)C1=C(C)NC(C)=C(C(=O)OC)C1c1cccc([N+](=O)[O-])c1 (centres unmarked) [Compound 08] ; pIC50 = 5.64

---

TEST NAME: Plasma and brain distribution studies
CONDITION CONTEXT: male, C57BL/6, mouse, brain, ip, 50 mg/kg
REPORTED PROPERTY: Tmax (min)
Supply the numeric figure in min, leaving out any unit text.

Data point: COC(=O)C1=CNC=C(C(=O)OC)C1c1ccc(F)c(C(F)(F)F)c1 ; Tmax = 15

---

TGT: CaV1.2 channel over KCa3.1 (Homo sapiens, UniProt Q13936)
Sequence (Q13936 whole entry): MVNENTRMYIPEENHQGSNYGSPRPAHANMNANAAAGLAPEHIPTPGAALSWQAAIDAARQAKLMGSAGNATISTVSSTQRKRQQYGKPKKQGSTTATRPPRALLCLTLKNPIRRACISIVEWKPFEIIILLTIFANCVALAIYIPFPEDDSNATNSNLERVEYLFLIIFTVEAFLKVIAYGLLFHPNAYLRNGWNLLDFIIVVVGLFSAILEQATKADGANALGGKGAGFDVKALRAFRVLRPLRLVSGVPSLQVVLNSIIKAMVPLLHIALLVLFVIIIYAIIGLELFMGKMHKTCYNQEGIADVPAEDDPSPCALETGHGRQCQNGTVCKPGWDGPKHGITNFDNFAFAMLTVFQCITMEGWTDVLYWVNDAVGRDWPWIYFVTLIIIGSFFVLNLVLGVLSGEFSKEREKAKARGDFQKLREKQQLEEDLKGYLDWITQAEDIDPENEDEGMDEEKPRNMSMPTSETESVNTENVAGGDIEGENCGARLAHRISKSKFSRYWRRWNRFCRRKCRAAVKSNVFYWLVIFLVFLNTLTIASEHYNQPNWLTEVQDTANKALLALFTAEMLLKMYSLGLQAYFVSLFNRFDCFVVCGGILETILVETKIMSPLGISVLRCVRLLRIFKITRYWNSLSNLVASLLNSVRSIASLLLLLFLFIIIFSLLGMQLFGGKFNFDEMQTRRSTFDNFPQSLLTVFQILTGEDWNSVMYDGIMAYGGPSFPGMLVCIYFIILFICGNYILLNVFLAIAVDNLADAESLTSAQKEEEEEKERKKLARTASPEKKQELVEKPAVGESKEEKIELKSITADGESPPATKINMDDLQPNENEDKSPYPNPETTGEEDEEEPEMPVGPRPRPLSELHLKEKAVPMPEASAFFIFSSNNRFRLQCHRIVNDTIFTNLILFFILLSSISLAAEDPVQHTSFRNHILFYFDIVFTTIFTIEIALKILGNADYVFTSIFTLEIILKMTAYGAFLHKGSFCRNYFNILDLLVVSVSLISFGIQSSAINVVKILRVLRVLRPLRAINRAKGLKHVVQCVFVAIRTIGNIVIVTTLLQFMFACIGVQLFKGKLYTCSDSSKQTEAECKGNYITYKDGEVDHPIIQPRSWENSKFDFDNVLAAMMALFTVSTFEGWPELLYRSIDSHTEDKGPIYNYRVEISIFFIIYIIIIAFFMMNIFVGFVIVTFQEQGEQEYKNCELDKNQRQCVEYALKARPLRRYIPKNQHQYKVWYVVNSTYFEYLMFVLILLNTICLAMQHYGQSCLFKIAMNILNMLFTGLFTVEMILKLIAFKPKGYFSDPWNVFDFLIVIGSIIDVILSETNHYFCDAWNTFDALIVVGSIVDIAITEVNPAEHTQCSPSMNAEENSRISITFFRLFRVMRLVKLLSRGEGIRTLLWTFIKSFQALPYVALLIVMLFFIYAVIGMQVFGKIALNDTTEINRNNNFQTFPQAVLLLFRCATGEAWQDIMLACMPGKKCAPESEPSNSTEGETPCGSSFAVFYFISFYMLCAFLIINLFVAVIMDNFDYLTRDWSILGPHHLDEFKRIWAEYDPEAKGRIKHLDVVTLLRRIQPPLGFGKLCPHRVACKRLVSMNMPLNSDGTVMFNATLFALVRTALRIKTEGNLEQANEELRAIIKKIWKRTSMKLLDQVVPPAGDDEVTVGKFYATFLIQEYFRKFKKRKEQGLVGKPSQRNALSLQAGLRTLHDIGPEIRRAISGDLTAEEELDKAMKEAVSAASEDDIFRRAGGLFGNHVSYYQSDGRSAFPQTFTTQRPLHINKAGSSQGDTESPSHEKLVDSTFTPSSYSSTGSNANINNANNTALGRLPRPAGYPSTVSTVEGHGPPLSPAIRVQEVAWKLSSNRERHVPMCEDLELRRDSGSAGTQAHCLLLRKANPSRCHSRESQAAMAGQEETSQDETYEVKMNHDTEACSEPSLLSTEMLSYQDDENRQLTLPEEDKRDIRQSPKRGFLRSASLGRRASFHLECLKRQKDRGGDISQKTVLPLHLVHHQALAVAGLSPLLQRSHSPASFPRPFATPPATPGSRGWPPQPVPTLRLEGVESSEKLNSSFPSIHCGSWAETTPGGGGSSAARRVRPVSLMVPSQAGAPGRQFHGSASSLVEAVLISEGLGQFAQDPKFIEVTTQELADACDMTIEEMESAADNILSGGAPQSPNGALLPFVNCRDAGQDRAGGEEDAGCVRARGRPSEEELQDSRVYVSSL
TEST NAME: in vitro
CONDITION CONTEXT: pH 7.4
Simple rule here: selectivity ratio less than 600 is 1.0, otherwise 0.0.

Sample answers from the record:
COMPOUND | CLASS LABEL
COC(=O)C1=C(C)NC(C)=C(C(C)=O)C1c1ccc(F)c(C(F)(F)F)c1 (stereo not drawn) | 1.0
COC(=O)C1=C(C)NC(C)=C(C(=O)OC)C1c1ccc(Cl)c(C(F)(F)F)c1 | 1.0
COC(=O)C1=CNC(C)=C(C(=O)OC)C1c1ccc(F)c(C(F)(F)F)c1 (stereo not drawn) | 0.0

[ask] Does the reported selectivity ratio of the following compound sit strictly below 600? COC(=O)C1=CNC=C(C(=O)OC)C1c1cc(F)c(F)c(C(F)(F)F)c1
[reply] 0.0

[ask] Does the reported selectivity ratio of the following compound sit strictly below 600? COC(=O)C1=CNC=C(C(=O)OC)C1c1cc(F)cc(C(F)(F)F)c1
[reply] 0.0

[ask] Does the reported selectivity ratio of the following compound sit strictly below 600? COC(=O)C1=CNC=C(C(=O)OC)C1c1cccc(C(F)(F)F)c1
[reply] 0.0

---

TGT: KV4.2 (Rattus norvegicus, UniProt Q63881)
Construct: expressed in transfected cells; host or cells: LTK
TEST NAME: Potassium channels patch-clamp (QPatch), KV4.2
Format: cell-based
CONDITION CONTEXT: LTK Rat KV4.2; read-out: KV4.2
pIC50: −log10 of the molar value.
REPORTED PROPERTY: pIC50

MOLECULE | TGT | pIC50
COC(=O)C1=CNC(C)=C(C(=O)OC)C1c1ccc(F)c(C(F)(F)F)c1 (centres unmarked) [Compound 104] | KV4.2 (Rattus norvegicus, UniProt Q63881) | < 5.00

Now for another entry.
Param item: COC(=O)C1=CNC=C(C(=O)OC)C1c1cccc(C(F)(F)F)c1 [Compound 108] ; param system: KV4.2 (Rattus norvegicus, UniProt Q63881); output pIC50: < 5.00

---

TGT: CYP-2C19 (Homo sapiens, UniProt P33261)
Sequence (P33261 whole entry): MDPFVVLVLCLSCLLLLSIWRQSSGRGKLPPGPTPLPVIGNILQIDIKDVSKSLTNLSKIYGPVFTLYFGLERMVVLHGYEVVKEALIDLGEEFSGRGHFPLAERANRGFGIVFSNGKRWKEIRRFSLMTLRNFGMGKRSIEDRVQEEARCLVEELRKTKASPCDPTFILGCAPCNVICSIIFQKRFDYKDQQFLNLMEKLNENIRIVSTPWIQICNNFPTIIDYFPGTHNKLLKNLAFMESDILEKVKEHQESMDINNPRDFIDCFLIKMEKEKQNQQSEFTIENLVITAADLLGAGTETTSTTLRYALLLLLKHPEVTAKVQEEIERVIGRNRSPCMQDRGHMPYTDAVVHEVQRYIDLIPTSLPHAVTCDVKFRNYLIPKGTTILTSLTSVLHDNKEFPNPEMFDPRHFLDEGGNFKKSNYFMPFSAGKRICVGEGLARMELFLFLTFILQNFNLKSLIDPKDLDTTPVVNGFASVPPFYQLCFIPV
pIC50: −log10 of the molar value.
REPORTED PROPERTY: pIC50

Param item: COC(=O)C1=C(C)NC(C)=C(C(=O)OC)C1c1ccc(F)c(C(F)(F)F)c1 [Compound 101] ; param system: CYP-2C19 (Homo sapiens, UniProt P33261); output pIC50: < 4.70

---

TGT: KCa2.2 (Rattus norvegicus)
Construct: expressed in transfected cells; host or cells: HEK
TEST NAME: Potassium channels patch-clamp (QPatch), KCa2.2
Type: cell-based
Each entry below carries its recorded IC50.

STRUCTURE SMILES | RESULT
COC(=O)C1=C(C)NC(C)=C(C(=O)OC)C1c1ccc(F)c(C(F)(F)F)c1 | > 10 µM

Data point: COC(=O)C1=CNC=C(C(=O)OC)C1c1ccc(F)c(C(F)(F)F)c1 ; IC50 = > 10 µM

---

TEST NAME: Plasma and brain distribution studies
CONDITION CONTEXT: male, C57BL/6, mouse, plasma, ip, 50 mg/kg
REPORTED PROPERTY: half-life

Data point: COC(=O)C1=CNC=C(C(=O)OC)C1c1ccc(F)c(C(F)(F)F)c1 ; half-life = 1.63 h

---

TEST NAME: Plasma and brain distribution studies
CONDITION CONTEXT: male, C57BL/6, mouse, plasma, ip, 50 mg/kg
REPORTED PROPERTY: Cmax
Include the unit after the number when you answer.

Data point: COC(=O)C1=CNC=C(C(=O)OC)C1c1ccc(F)c(C(F)(F)F)c1 ; Cmax = 8540 ng/mL

---

TGT: KV11.1 (hERG) (Homo sapiens)
Construct: host or cells: CHO
Sequence (Q12809 whole entry): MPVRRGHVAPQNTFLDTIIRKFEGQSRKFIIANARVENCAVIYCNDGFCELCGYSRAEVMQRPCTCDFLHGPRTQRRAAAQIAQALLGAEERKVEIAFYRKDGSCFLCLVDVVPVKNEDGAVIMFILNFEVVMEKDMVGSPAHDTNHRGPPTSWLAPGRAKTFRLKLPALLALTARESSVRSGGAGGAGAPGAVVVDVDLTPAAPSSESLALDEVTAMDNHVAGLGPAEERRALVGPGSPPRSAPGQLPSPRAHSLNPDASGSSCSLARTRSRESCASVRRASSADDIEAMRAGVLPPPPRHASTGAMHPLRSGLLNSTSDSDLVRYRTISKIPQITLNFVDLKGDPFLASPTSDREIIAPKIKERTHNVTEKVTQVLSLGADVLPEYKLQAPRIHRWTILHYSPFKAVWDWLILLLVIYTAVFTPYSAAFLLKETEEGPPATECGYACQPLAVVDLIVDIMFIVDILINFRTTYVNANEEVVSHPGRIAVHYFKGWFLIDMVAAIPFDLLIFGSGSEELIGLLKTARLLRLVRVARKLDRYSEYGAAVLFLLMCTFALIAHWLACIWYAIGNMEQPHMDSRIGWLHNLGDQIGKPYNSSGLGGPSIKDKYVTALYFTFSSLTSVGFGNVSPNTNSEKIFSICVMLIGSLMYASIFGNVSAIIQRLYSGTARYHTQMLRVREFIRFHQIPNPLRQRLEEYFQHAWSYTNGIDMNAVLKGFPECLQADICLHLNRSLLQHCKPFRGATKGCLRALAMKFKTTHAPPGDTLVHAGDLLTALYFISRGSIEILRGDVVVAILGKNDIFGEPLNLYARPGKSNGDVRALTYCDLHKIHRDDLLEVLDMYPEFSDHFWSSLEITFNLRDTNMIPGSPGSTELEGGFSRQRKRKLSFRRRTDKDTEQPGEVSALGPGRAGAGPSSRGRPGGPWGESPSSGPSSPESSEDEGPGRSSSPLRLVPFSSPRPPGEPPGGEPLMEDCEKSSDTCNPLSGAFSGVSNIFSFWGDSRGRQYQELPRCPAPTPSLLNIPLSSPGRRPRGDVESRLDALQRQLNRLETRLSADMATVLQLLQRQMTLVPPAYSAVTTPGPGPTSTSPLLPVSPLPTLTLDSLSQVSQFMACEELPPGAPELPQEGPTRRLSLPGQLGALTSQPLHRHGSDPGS
TEST NAME: Potassium channels patch-clamp (QPatch), KV11.1 (hERG)
Assay type: cell-based
pIC50: −log10 of the molar value.
REPORTED PROPERTY: pIC50

MOLECULE | REPORTED PROPERTY | RESULT
COC(=O)C1=C(C)NC(C)=C(C(=O)OC)C1c1ccc(F)c(C(F)(F)F)c1 [Compound 101] | pIC50 | < 5.00

Data point: COC(=O)C1=CNC=C(C(=O)OC)C1c1ccc(F)c(C(F)(F)F)c1 [Compound 103] ; pIC50 = < 5.00

---

TEST NAME: Solubility test (PBS, HPLC-UV)
Format: physicochemical
CONDITION CONTEXT: pH 5, aqueous buffer, kinetic from dmso stock, PBS pH 5.0
REPORTED PROPERTY: solubility at 90 min (µM)
Supply the numeric figure in µM, leaving out any unit text.

Data point: COC(=O)C1=CNC=C(C(=O)OC)C1c1ccc(F)c(C(F)(F)F)c1 ; solubility at 90 min = 58.1

---

TEST NAME: Plasma and liver studies after 14 days of repeated oral dose
Assay type: in vivo, C57/BL6 mice
CONDITION CONTEXT: C57/BL6, mouse, plasma; 25 mg/kg BID oral 14 days, Male mice; read-out: Average Concentration Plasma
REPORTED PROPERTY: concentration at 14 days (ng/mL)
Supply the numeric figure in ng/mL, leaving out any unit text.

Data point: COC(=O)C1=CNC=C(C(=O)OC)C1c1ccc(F)c(C(F)(F)F)c1 [Compound 103] ; concentration at 14 days = 297

---

TGT: CYP-2D6 (Homo sapiens)
REPORTED PROPERTY: IC50

Data point: COC(=O)C1=C(C)NC(C)=C(C(=O)OC)C1c1ccc(F)c(C(F)(F)F)c1 ; IC50 = > 20 µM

---

TGT: KCa1.1 (Homo sapiens, UniProt Q12791)
Construct: expressed in transfected cells; host or cells: HEK
Sequence (Q12791 whole entry): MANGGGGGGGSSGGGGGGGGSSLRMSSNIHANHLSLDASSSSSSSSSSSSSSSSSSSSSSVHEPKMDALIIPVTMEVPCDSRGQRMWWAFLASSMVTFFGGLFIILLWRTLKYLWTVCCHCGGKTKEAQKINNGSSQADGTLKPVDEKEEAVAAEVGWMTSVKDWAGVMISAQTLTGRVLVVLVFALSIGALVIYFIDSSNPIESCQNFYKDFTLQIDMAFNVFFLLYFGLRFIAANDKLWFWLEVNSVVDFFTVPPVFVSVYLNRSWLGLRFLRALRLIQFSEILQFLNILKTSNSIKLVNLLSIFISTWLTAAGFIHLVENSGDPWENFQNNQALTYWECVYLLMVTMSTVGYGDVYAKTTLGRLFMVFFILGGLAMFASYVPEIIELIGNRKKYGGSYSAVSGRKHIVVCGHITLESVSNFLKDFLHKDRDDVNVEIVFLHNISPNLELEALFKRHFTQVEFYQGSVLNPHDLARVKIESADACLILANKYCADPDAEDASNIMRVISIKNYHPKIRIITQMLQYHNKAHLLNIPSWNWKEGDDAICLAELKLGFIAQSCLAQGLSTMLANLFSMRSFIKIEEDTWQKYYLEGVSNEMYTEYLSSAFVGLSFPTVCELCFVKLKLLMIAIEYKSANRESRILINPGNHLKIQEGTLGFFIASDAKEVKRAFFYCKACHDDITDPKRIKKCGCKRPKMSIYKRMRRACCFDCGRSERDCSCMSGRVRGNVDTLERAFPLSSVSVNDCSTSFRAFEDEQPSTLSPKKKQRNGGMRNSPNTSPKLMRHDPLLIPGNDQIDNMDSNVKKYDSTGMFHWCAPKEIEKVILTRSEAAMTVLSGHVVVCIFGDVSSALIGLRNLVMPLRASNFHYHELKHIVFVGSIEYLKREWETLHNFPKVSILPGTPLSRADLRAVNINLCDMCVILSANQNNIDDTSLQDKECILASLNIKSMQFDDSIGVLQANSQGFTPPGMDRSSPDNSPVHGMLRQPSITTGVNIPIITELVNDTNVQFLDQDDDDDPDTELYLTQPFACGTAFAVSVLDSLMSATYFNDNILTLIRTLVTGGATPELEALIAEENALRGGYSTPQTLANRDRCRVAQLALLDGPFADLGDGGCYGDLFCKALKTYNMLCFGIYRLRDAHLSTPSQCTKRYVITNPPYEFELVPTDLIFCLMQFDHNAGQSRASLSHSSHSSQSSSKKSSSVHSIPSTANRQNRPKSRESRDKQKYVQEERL
TEST NAME: Potassium channels patch-clamp (QPatch), KCa1.1
Type: cell-based
CONDITION CONTEXT: HEK Human KCa1.1; read-out: KCa1.1
pIC50: −log10 of the molar value.
REPORTED PROPERTY: pIC50

MOLECULE | TGT | pIC50
COC(=O)C1=CNC=C(C(=O)OC)C1c1cccc(C(F)(F)F)c1 | KCa1.1 (Homo sapiens, UniProt Q12791) | < 5.00

Now for another entry.
Data point: COC(=O)C1=CNC(C)=C(C(=O)OC)C1c1ccc(F)c(C(F)(F)F)c1 (centres unmarked) ; pIC50 = < 5.00
